B1: RHOBTB3 (parent)
chain: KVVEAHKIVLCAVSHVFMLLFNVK

Variants of: B1
Experiment: protein stability index of a GFP-peptide fusion (GPS, HEK-293T) (PSI 1-6); higher = more stable;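 further: lentivirally expressed fusions sorted by FACS into six bins by GFP to DsRed ratio, PSI derived from sequencing read proportions per bin multiplied by bin number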
Details: c terminus: a fixed tail appended
Label fulfilled when protein stability index is at or above 3; otherwise label not fulfilled.

Asked: Threshold query (protein stability index >= 3) on "I8Q"
Given back: not fulfilled
